- Tested on: MS2 coat protein
- ASSAY: apparent KD of MS2 coat protein; designed switch direction (-1 OFF switch, 1 ON switch): -1; higher = weaker reporter binding
- APPLIED_CONDITIONS: input ligand: FMN 200 uM
Response key: class 1 means apparent KD of MS2 coat protein >= 0.4 µM; class 0 means apparent KD of MS2 coat protein < 0.4 µM.

[
  {
    "INPUT_SEQUENCE": "UGGUCACAUGAGGAUCACCCAUGUCAGGAUAUCGUCACUGGAGCUGCGGCUCCAGUGACGAGAAGGGACAUAAU [E1/6-A3] (Eterna round: R97, puzzle: Exclusion 1)",
    "ASSAY_SYSTEM": "MS2 coat protein",
    "ANSWER_LABEL": "class 0"
  }
]

Query :: Please tell me: is the sequence AGUUGUAAAGAGGAUAUCCAUCCCGGCAUCCAUGGAGAAGGUUUAACAUGAGGAUCACCCAUGUCAUGAUCCUC [Eternabot (L2) Solution 3] (Eterna round: R97, puzzle: Exclusion 6) at or over 0.4 µM in terms of apparent KD of MS2 coat protein?
Result :: class 1

Query :: Does the sequence AUGUGCACGCUGCGAUCCUACAUGAGGAUCACCCAUGUGGUCUGGUGGCGUGGGUCACCGGACUUGGCUCGUCUUGU [salish99_S_TOV1_R5_081] (Eterna round: R97, puzzle: Sensor, turn-off variant 1) have recorded apparent KD of MS2 coat protein that is 0.4 µM or more?
Result :: class 0

Query :: Answer whether apparent KD of MS2 coat protein of GGAUCAUAUGUCAGGAUAUGCUGGUCCUUGGAUCAGCAGAAGGGACAUGAGGAUCACCCAUGUCAUGAAGAUCC [Eli bmx4 4.79] (Eterna round: R97, puzzle: Brourd's mod of Exclusion 4) is greater than or equal to 0.4 µM.
Result :: class 0
